assayed.target: human TLR8 (Homo sapiens (Human), UniProt Q9NR97)
Sequence (Q9NR97 27-1041): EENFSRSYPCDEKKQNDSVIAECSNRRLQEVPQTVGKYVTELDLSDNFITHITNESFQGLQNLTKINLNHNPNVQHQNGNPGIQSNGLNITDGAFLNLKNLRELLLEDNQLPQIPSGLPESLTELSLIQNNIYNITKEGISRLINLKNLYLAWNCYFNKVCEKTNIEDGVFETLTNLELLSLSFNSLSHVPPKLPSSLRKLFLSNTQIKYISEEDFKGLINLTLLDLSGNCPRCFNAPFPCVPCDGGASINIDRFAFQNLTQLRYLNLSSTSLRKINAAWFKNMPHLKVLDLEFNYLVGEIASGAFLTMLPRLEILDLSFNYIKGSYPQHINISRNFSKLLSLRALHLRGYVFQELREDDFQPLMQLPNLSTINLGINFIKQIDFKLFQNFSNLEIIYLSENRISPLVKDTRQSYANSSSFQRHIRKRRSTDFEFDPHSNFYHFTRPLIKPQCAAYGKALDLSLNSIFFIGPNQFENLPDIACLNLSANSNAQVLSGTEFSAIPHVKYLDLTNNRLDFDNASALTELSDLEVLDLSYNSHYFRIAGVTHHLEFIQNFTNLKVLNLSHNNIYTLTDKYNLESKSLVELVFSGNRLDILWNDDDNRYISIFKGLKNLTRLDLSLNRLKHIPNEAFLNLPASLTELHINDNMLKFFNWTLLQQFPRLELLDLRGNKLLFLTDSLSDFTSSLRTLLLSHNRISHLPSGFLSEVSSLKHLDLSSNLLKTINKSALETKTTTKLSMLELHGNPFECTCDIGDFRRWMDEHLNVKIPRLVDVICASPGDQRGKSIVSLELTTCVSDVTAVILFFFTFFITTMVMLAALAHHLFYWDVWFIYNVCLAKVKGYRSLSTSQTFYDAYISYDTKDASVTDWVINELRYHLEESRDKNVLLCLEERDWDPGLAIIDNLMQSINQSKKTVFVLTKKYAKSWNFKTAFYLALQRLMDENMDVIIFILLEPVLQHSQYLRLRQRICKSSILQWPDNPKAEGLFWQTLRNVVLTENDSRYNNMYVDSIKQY
assay.text: HEK-Blue human TLR8 cells, NF-κB SEAP reporter assay
test.settings: stimulation for 20 hours
observation.type: EC50
Please answer using a numeric value trailed by its unit.

// EC50 lookup, key: `CCCN(CC(C)C)C(=O)C1=Cc2ccc(C(=O)Nc3cccc(C)c3)cc2N=C(N)C1`
2 nM

What about `CCCN(CCC(F)(F)F)C(=O)C1=Cc2ccc(C(=O)Nc3cccc(C)c3)cc2N=C(N)C1` ?
2 nM

`CCCN(CCC)C(=O)C1=Cc2ccc(C(=O)Nc3ccc(C)nc3)cc2N=C(N)C1` ?
3 nM

Repeat with `CCCN(CCCO)C(=O)C1=Cc2ccc(C(=O)Nc3cccnc3)cc2N=C(N)C1`
29 nM

Note, next up: `CCCN(CCCOCCOCCN)C(=O)C1=Cc2ccc(C(=O)Nc3cccc(C)c3)cc2N=C(N)C1`
31 nM

Same question for `CCCN(CCC)C(=O)C1=Cc2ccc(C(=O)Nc3ccc(C)cc3)cc2N=C(N)C1` please.
1 nM

Can you handle `CCCN(CCC)C(=O)C1=Cc2ccc(C(=O)Nc3cccc(COCCOCCN)c3)cc2N=C(N)C1` next?
6 nM

Same read-out for `CCCN(CCC)C(=O)C1=Cc2ccc(C(=O)Nc3cccc(Cl)c3)cc2N=C(N)C1` ?
2 nM

What do you get for `CCCN(Cc1ccc(CN)cc1)C(=O)C1=Cc2ccc(C(=O)Nc3cccc(C)c3)cc2N=C(N)C1` ?
27 nM

# iterate: `CCCN(CCC)C(=O)C1=Cc2ccc(C(=O)Nc3cncc(CNC(=O)OCc4ccccc4)c3)cc2N=C(N)C1`
4 nM

For `CCCN(CCC)C(=O)C1=Cc2ccc(C(=O)Nc3cncc(CCCCCN)c3)cc2N=C(N)C1` then?
25 nM

Now consider `CCCN(CCC)C(=O)C1=Cc2ccc(C(=O)Nc3cncc(CN)c3)cc2N=C(N)C1` .
2 nM

Try the compound `CCCN(CCC)C(=O)C1=Cc2ccc(C(=O)Nc3cc(Cl)cc(CCN)c3)cc2N=C(N)C1`
29 nM

Proceed to `CCCN(CCC)C(=O)C1=Cc2ccc(C(=O)Nc3ncco3)cc2N=C(N)C1`
29 nM

And `CCCN(CCC)C(=O)C1=Cc2ccc(C(=O)Nc3cncc(CCc4ccc(OC)cc4)c3)cc2N=C(N)C1` ?
12 nM

Entry to check: `CCCN(CCC)C(=O)C1=Cc2ccc(C(=O)Nc3cncc(C)c3)cc2N=C(N)C1`
2 nM
